The origin of these recorded values is ChEMBL document CHEMBL4382273.

Experiment: Selectivity index, ratio of IC50 for rat L6 cells to IC50 for Leishmania donovani MHOM/ET/67/L82 axenic amastigotes
Type: toxicity
Details: read-out: Ratio IC50
endpointLabel: selectivity ratio

Below: 3 molecules and their reported selectivity ratio.
INSERT INTO assay_data (recordsmiles, endpointlabel, reportedvalue) VALUES
  ('C=CC1=C[C@@H]2[C@H]3C(C)=CO[C@]45O[C@]67CCCC(C)(C)[C@@H]6CC[C@](C1)(C(=O)[C@]3(C(C)C)C4=O)[C@]25C7', 'selectivity ratio', 2.7),
  ('CC1=C2C[C@@H]3C(C)(C)OC4=C(C(C)C)C(=O)[C@]5(CC[C@H]6C(C)(C)CCC[C@]67C[C@]25[C@@]43O7)CC1=O', 'selectivity ratio', 2.4),
  ('CC(C)C1=C2OC(C)(C)[C@H]3C[C@@]45O[C@]4(C)[C@H](O)C[C@@]4(CC[C@H]6C(C)(C)CCC[C@]67C[C@@]45[C@@]23O7)C1=O', 'selectivity ratio', 1.1);

Please state, for each entry, its recorded selectivity ratio.
1. CC1=C2[C@H](O)[C@@H]3C(C)(C)OC4=C(C(C)C)C(=O)[C@]5(CC[C@H]6C(C)(C)CCC[C@]67C[C@]25[C@@]43O7)CC1=O
2. CC1=C2C[C@@H]3C(C)(C)O[C@]45O[C@@]4(C(C)C)C(=O)[C@]4(CC[C@H]6C(C)(C)CCC[C@]67C[C@]24[C@]35O7)CC1=O
3. CC(=O)[C@@]12C[C@H]3C(C)(C)OC4=C(C(C)C)C(=O)[C@]5(CC[C@H]6C(C)(C)CCC[C@]67C[C@@]51[C@@]43O7)C[C@H]2O
4. CC(C)=C[C@H]1[C@@H]2C(C)=CC[C@]34CC[C@H]5C(C)(C)CCC[C@]56C[C@]23[C@@](O)(O6)C(=O)[C@]1(C(C)C)C4=O

[1.8, 5.9, 3.3, 2.2]
